Tested on: MCF7 breast
protocol: NCI tumour cell line growth inhibition, 48 h
Provide the recorded TGI for the entries that follow.

Req: Query for MCF7 breast: what TGI does the record show for `Fc1ccc(NCn2nc(COc3ccccc3Cl)n(/N=C/c3ccc(-c4ccc(Cl)cc4Cl)o3)c2=S)cc1Cl` ?
Resp: > 100 µM

Req: // lookup TGI | system=MCF7 breast | key= `CC(=O)O[C@H]1[C@H](OC(C)=O)[C@@H](CN=[N+]=[N-])OCO[C@@H]1CN=[N+]=[N-]`
Resp: > 100 µM

Req: Find the measured TGI: item COP(=O)(OC)C(O)/C=C(\Cl)c1ccc(Cl)cc1 (configuration not stated) , target or system MCF7 breast.
Resp: > 100 µM

Req: So what TGI did O=C1/C(=C/c2ccc(Cl)cc2)N=C(c2ccccc2)N1C1Nc2cc3c(cc2S1)NC(N1C(=O)/C(=C/c2ccc(Cl)cc2)N=C1c1ccccc1)S3 (configuration not stated) get with MCF7 breast?
Resp: > 100 µM

Req: Entry O/N=C1/CCCCCC1NO (configuration not stated) , system MCF7 breast: what TGI was measured?
Resp: > 100 µM

Req: Item `Cc1nc(N)c(N2CCN(Cc3ccccc3)CC2)c(=O)[nH]1` with MCF7 breast - TGI?
Resp: > 100 µM

Req: Give TGI (MCF7 breast) of the following compound: `O=C1/C(=C/c2ccc(Cl)cc2)CN(Cc2cn(CCNc3ccnc4cc(Cl)ccc34)nn2)C/C1=C\c1ccc(Cl)cc1`
Resp: 1.37 µM

Req: Find TGI (MCF7 breast) for the entry `Cc1cc(C)nc(NS(=O)(=O)c2ccc(NNC(=O)c3cccc4c(NNc5ccc(S(=O)(=O)Nc6nc(C)cc(C)n6)cc5)c5ccccc5nc34)cc2)n1`
Resp: 62.4 µM

Req: Identify the measured TGI of CC1C2(C)OC(=N)C(C#N)(C(c3ccco3)O2)C1(C#N)C#N (configuration not stated) for MCF7 breast.
Resp: 51.4 µM

Req: Give the reported TGI for `COc1ccc(N(C)c2nc(Cl)nc3ccn(C)c23)cc1` (system: MCF7 breast).
Resp: > 100 µM

Req: Look up TGI with MCF7 breast for this compound: `O=C1NC(N/N=C/c2ccccc2)=N/C1=C\c1cccs1`
Resp: 46.5 µM

Req: Item: `COc1ccc(Cn2cnc3cc(C(=O)Nc4cccc5ccccc45)ccc32)c(OC)c1` Test system: MCF7 breast Read-out: TGI Value: ?
Resp: > 100 µM

Req: Which measured TGI belongs to `Cn1c(=O)c2nc3nnc(C#N)c(N)n3c2n(C)c1=O` , tested on MCF7 breast?
Resp: > 100 µM

Req: Form field - read-out: TGI; system: MCF7 breast; submitted item: `O=C(O)/C=C/c1cnc[nH]1`
Resp: > 500 µM

Req: Report TGI for `Cn1c(=O)c2c(ncn2CCSS(=O)(=O)O)n(C)c1=O` tested on MCF7 breast.
Resp: > 100 µM

Req: Report TGI for `Cc1cc(NCCCCNc2ccnc3cc(Cl)ccc23)nc(Nc2ccc(C(=O)N3CCCC3)cc2)n1` tested on MCF7 breast.
Resp: 5.02 µM

Req: Param readout = TGI; param system = MCF7 breast; param query = `COC(=O)c1cc(-c2ccc(-c3ccc(O)cc3)cc2)cc(-c2ccc(-c3ccc(O)cc3)cc2)c1` ; response: value
Resp: 25.9 µM

====

System: CCRF-CEM leukemia
protocol: NCI tumour cell line growth inhibition, 48 h
readout: TGI

Req: So what does the record say about TGI for CCCCCCCCCCCCCC(=O)OC(/C=C/C(C)C)C(O)C(O)C(OC)C(=O)NC1CCCCNC1=O (stereo not given) ?
Resp: 11.9 µM

Req: Given Cc1ccc(S(=O)C[C@@]2(C(F)F)NC(=O)NC2=O)cc1 (stereo not given in full) , state its recorded TGI.
Resp: > 100 µM

Req: So what does the record say about TGI for COCC(=O)OC1CCn2c1nc1c2C(=O)C(C)=C(NC(C)=O)C1=N (stereo not given) ?
Resp: 8.27 µM

Req: I have this molecule here, `COc1cc(C(=O)/C=C/c2c(-c3ccc(F)cc3)nc3ncccn23)cc(OC)c1OC` , and I need its recorded TGI.
Resp: > 100 µM

Req: Reported TGI, molecule `CCCC(=O)Nc1cc([N+](=O)[O-])c([N+](=O)[O-])cc1OC` : ____
Resp: 51.4 µM

Req: Can you look up the measured TGI of `BrCCC[P+](c1ccccc1)(c1ccccc1)c1ccccc1` for me?
Resp: > 100 µM

Req: Fill blank: measured TGI of the molecule O=C1OC2c3ccccc3C(=O)C2(c2ccccc2)N1c1ccccc1 (stereo not given) is ____.
Resp: > 200 µM

Req: Suppose we examine the molecule `O=C(O)CSc1nnc(CCCCCCCCc2nnc(SCC(=O)O)o2)o1` ; what TGI value has been reported?
Resp: > 100 µM

Req: # query: TGI of entry `CC1(C)O[C@H]2[C@@H]3N=C(c4ccccc4)O[C@@H]3C=C[C@H]2O1`
Resp: > 100 µM

Req: Recorded TGI of `N#Cc1c(NC(=O)c2cccc3ccccc23)sc2c1CCCC2` , please.
Resp: > 25 µM

====

Test system: SF-295 CNS
protocol: NCI tumour cell line growth inhibition, 48 h
readout: TGI (µM)
Answer in µM, number only, no unit symbol.

Req: Identify the measured TGI of `CCOC(=O)/C=C(\C(=O)OCC)n1cnc2c(N)ncnc21` for SF-295 CNS.
Resp: 32.1

Req: Missing value: TGI, SF-295 CNS, entry `Cc1nc(N)sc1N=Nc1cc(Cl)c([N+](=O)[O-])cc1Cl` . Fill in?
Resp: 54.6

Req: Checklist item: TGI tested on SF-295 CNS, entry `COc1ccc(Cn2cc3c(c2-c2ccc(O)cc2)CCc2cnoc2-3)cc1` , value?
Resp: 2.49

Req: Hi! What's the reported TGI for `N#Cc1c(-c2ccc(Cl)cc2)c(-c2ccc(Cl)cc2)nn(CCOC(=O)CCC(=O)O)c1=O` on SF-295 CNS?
Resp: 16.9

====

Test system: M19-MEL melanoma
protocol: NCI tumour cell line growth inhibition, 48 h
readout: TGI (µM)
The reply should contain only the number, in µM.

Req: # TGI lookup, item `CCC[CH2][Sn]1([CH2]CCC)[O]C(=O)c2cccc(OC)c2[O]1`
Resp: 1.23

Req: TGI for COC(=O)c1c(C)cc2c(c1O)C1(O)C(=O)c3cc4c(c(O)c3C(=O)C1(OC)C(O)C2)C(=O)C=C(NC1OC(C)C(OC)C(O)C1OC)C4=O (centres undefined) ?
Resp: 0.0516

Req: Item `O=C1CCCC(=O)C1=C(O)CCCCCCCCCCc1ccccc1` has what recorded TGI?
Resp: 97.9

Req: Return reported TGI; argument: `C=C(CN(C)C)C(=O)c1cc(C)ccc1C`
Resp: 19.6

Req: What value of TGI has been reported for the following compound? O=C1c2ccccc2C(=O)C2C3c4ccccc4C(c4ccccc43)C12 (centres undefined)
Resp: 40

====

Test system: OVCAR-8 ovarian
protocol: NCI tumour cell line growth inhibition, 48 h
Please respond with reported TGI for every item in the list.
Number only, in µM; omit the unit.

Req: What value of measured TGI is listed for `Cc1ccc(-c2nc3c(C(=O)NCCN(C)C)cccc3[nH]2)cc1` ?
Resp: 78.3

Req: Fill blank: measured TGI of the compound `CCN(CC)CCC(=O)c1ccccc1` is ____.
Resp: 58

Req: Name the recorded TGI for `O=C(N/N=C/C=C/c1ccc([N+](=O)[O-])o1)c1ccc(Br)s1` .
Resp: 46.7

====

Tested on: CCRF-CEM leukemia
protocol: NCI tumour cell line growth inhibition, 48 h
readout: TGI

Req: Query for CCRF-CEM leukemia: what TGI does the record show for `COc1ccc(NC(=O)COC(=O)c2cccc3c(=O)c4ccccc4[nH]c23)cc1` ?
Resp: 28 µM

Req: Fill in the recorded TGI for this molecule, with CCRF-CEM leukemia as test system: COc1cc(C2c3[nH]c4ccc(F)cc4c3C[C@H]3COC(=O)N23)cc(OC)c1O (stereo partly specified)
Resp: > 100 µM

Req: # returns recorded TGI (system: CCRF-CEM leukemia) for `COc1ccc(C(=O)/C=C/c2ccc(OCC(=O)O)cc2)cc1`
Resp: > 100 µM

Req: Param readout = TGI; param system = CCRF-CEM leukemia; param query = `O=C1/C(=C/c2ccc(Cl)cc2)CN(Cc2cn(CCNc3ccnc4cc(Cl)ccc34)nn2)C/C1=C\c1ccc(Cl)cc1` ; response: value
Resp: > 100 µM

Req: Recorded TGI for `COc1ccc(Cn2cnc3cc(C(=O)Nc4cccc5ccccc45)ccc32)c(OC)c1` with CCRF-CEM leukemia, please?
Resp: > 100 µM

Req: What value of TGI on CCRF-CEM leukemia does `Oc1ccc2ccccc2c1C(c1ccc(Cl)cc1)c1c(O)ccc2ccccc12` have?
Resp: 7.46 µM
